Target: CCK-receptor (Rattus norvegicus, UniProt P30551)
Construct: Pancreatic plasma membranes were prepared by the method of Chang et al
Sequence (P30551 whole entry): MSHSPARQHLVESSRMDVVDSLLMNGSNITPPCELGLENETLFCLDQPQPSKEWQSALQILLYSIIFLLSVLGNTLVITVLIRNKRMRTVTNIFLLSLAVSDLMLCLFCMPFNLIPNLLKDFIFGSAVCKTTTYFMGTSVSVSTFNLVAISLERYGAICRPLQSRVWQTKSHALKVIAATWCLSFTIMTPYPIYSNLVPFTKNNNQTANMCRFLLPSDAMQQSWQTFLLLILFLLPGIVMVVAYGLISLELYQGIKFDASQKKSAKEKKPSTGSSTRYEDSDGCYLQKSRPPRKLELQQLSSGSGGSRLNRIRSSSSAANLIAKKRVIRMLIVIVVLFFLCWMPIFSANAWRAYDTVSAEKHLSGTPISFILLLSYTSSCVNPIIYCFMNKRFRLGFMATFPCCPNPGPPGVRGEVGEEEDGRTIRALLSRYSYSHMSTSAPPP
Experiment: CCK-receptor binding assay in pancreas (125I-CCK-8, pancreatic plasma membranes)
Details: 30 pM 125I-CCK-8, rat pancreatic plasma membranes, 37° C., 30 minutes; inhibition of specific binding
Method: CCK-receptor binding assay in pancreas Pancreatic plasma membranes were prepared by the method of Chang et al. (Molecular Pharmacology, Vol. 30, p. 212-, 1986). Male Wistar rats were sacrificed by decapitation and the pancreas was removed. […] Specific binding was defined as the radioactivity bound after subtracting nonspecific binding determined in the presense of 10^-6 M unlabeled CCK-8. IC50 value was calculated from inhibition percentage of specific binding by each test drug.
pIC50: −log10 of the molar value.
quantity-measured: pIC50

// known answers, use as guide
molecule	pIC50
CCCCCN(CCCCC)C(=O)C(CC(=O)O)CS(=O)(=O)c1ccc2ccccc2c1 (centres unmarked)	6.54
CCCCCN(CC(=O)N(C(C)C)C(C)C)C(=O)C(CCC(=O)O)CS(=O)(=O)c1ccc2ccccc2c1 (centres unmarked)	5.64
CCCCCN(CC(=O)OC(C)C)C(=O)C(CCC(=O)O)CS(=O)(=O)c1ccc2ccccc2c1 (centres unmarked)	7.36

I: CCCCCN(CCOC(C)=O)C(=O)C(CCC(=O)O)CS(=O)(=O)c1ccc2ccccc2c1 (centres unmarked)
II: CCOC(=O)CN(CC(=O)OCC)C(=O)C(CCC(=O)OCc1ccccc1)CS(=O)(=O)c1ccc2ccccc2c1 (centres unmarked)
Q: So which one has the bigger pIC50 here, I or II ? Write the label of whichever entry you select.
Ans: I
(I: 6.70, II: 5.19)

The measurements presented in this section are drawn from patent US5177069A.
